System: Oryza sativa, (L.) Tebonnet
Experiment: Rice tolerance to post-transplant applications under flooded paddy conditions (Example 187), ORYSAT (Rice, Tebonnet); note: meaning of each grade not given here
Details: Rate 0.5000 kg/ha, rated three to four weeks after treatment
readout.label: herbicidal effect rating ORYSAT
Give a plain numeric answer without units written out.

Which herbicidal effect rating ORYSAT is listed for "Cn1c(C(F)(F)F)cc(=O)n(-c2ccc3snc(/C=C/CBr)c3c2)c1=O" ? 9.0

Which herbicidal effect rating ORYSAT is listed for "CN(C(=O)c1nsc2ccc(-n3c(=O)cc(C(F)(F)F)n(C)c3=O)cc12)c1ccc(Cl)cc1" ? 6.0

Which herbicidal effect rating ORYSAT is listed for "COC(=O)COc1ccc(C)cc1-c1noc2cc(F)c(-n3c(=O)cc(C(F)(F)F)n(C)c3=O)cc12" ? 9.0
